Reference source: paper PMC7717570

Test system: Schistosoma mansoni mature worms
protocol.summary: In vitro S. mansoni worm killing
condition.label: Schistosoma mansoni, 120 h, 50 µM, day 5, initial test (Table 2); read-out: Worm killing (% of total)
parameter: killing at 50 µM

>>> df
                      smiles_representation  result
0  O=c1c2ccccc2n(Cc2ccc(C(F)(F)F)cc2)c(=O)n1Cc1ccc(F)cc1      0%
1  COc1cc2c(=O)n(Cc3ccc(F)cc3)c(=O)n(Cc3ccc(C(F)(F)F)cc3)c2cc1OC     93%
2  COc1ccc(Cn2c(=O)c3cc(C)cc(Br)c3n(Cc3ccc(C(F)(F)F)cc3)c2=O)cc1      0%
3  Cc1cc(Br)c2c(c1)c(=O)n(Cc1ccc(F)cc1)c(=O)n2Cc1ccc(C(F)(F)F)cc1      0%
4  O=c1c2ccc(Br)cc2n(Cc2ccc(C(F)(F)F)cc2)c(=O)n1Cc1ccc(F)cc1      0%
5  COc1ccc(Cn2c(=O)c3cc(Cl)ccc3n(Cc3ccc(C(F)(F)F)cc3)c2=O)cc1     29%
6  COc1ccc(Cn2c(=O)c3ccc(Br)cc3n(Cc3ccc(C(F)(F)F)cc3)c2=O)cc1      0%
7  COc1ccc(Cn2c(=O)c3cc(Br)ccc3n(Cc3ccc(C(F)(F)F)cc3)c2=O)cc1      0%

---

System: Schistosoma mansoni mature worms
protocol.summary: In vitro S. mansoni worm killing
condition.label: Schistosoma mansoni, 120 h, 50 µM, day 5, initial test (Table 2); read-out: Worm killing (% of total)
parameter: killing at 50 µM (%)

>>> print(df.to_string())
                      smiles_representation         parameter  unit_descriptor  result
0  O=c1c2cc(Br)ccc2n(Cc2ccc(C(F)(F)F)cc2)c(=O)n1Cc1ccc(F)cc1  killing at 50 µM                %      13
1  O=c1c2cc(Cl)ccc2n(Cc2ccc(C(F)(F)F)cc2)c(=O)n1Cc1ccc(F)cc1  killing at 50 µM                %       0
2  COc1ccc(Cn2c(=O)c3cc(OC)c(OC)cc3n(Cc3ccc(C(F)(F)F)cc3)c2=O)cc1  killing at 50 µM                %       0
3  COc1ccc(Cn2c(=O)c3ccccc3n(Cc3ccc(C(F)(F)F)cc3)c2=O)cc1  killing at 50 µM                %       0

---

In this section, each of the compounds is paired with its reported killing at 100 µM.
Tested on: Schistosoma mansoni mature worms
protocol.summary: In vitro S. mansoni worm killing
condition.label: Schistosoma mansoni, 120 h, 100 µM, day 5, initial test (Table 2); read-out: Worm killing (% of total)
Protocol: The percentage reduction of worm or egg burden in each treated group was calculated. […] Results are expressed as mean ± SEM. A two-tailed, unpaired Student’s t-test was used to detect the significance of difference between the means of different groups. […] Each concentration was tested in duplicate, and the final recording of percent worm mortality was determined as the number of dead worms [contracted and opaque] divided by the total number of worms × 100. […]
parameter: killing at 100 µM (%)

>>> df
                                   compound          parameter  unit_descriptor  result
0  O=c1c2cc(Br)ccc2n(Cc2ccc(C(F)(F)F)cc2)c(=O)n1Cc1ccc(F)cc1 [compound 4]  killing at 100 µM                %     100
1  COc1ccc(Cn2c(=O)c3cc(Br)ccc3n(Cc3ccc(C(F)(F)F)cc3)c2=O)cc1 [compound 5]  killing at 100 µM                %     100
2  O=c1c2ccc(Br)cc2n(Cc2ccc(C(F)(F)F)cc2)c(=O)n1Cc1ccc(F)cc1 [compound 6]  killing at 100 µM                %      88
3  COc1ccc(Cn2c(=O)c3cc(C)cc(Br)c3n(Cc3ccc(C(F)(F)F)cc3)c2=O)cc1 [compound 13]  killing at 100 µM                %      33
4  O=c1c2ccccc2n(Cc2ccc(C(F)(F)F)cc2)c(=O)n1Cc1ccc(F)cc1 [compound 2]  killing at 100 µM                %     100
5  COc1ccc(Cn2c(=O)c3cc(OC)c(OC)cc3n(Cc3ccc(C(F)(F)F)cc3)c2=O)cc1 [compound 11]  killing at 100 µM                %      86
6  COc1ccc(Cn2c(=O)c3ccc(Br)cc3n(Cc3ccc(C(F)(F)F)cc3)c2=O)cc1 [compound 7]  killing at 100 µM                %       0
